Test system: NCI-H522
PROTOCOL TEXT: Cell viability assay, NCI-H522
Type: cell-based
CONDITION INFO: Homo sapiens, 72 h; NCI-H522, NSCLC, 3 days; read-out: Cellular Anti-proliferation activity (IC50)
MEASURED QUANTITY: IC50

| TEST SMILES | RESULT |
| --- | --- |
| CN(C)C(=O)c1cc2cnc(Nc3ccc(N4CCNCC4)cn3)nc2n1C1CCCC1 | > 10 µM |

Provide the reported IC50 of each entry below, same order.
1. CCN1CCN(Cc2ccc(Nc3ncc(F)c(-c4cc(F)c5nc(C)n(C(C)C)c5c4)n3)nc2)CC1
2. CC(=O)c1c(C)c2cnc(Nc3ccc(N4CCNCC4)cn3)nc2n(C2CCCC2)c1=O

Response:
1: > 3 µM; 2: > 10 µM

---

Test system: MDA-MB-157
PROTOCOL TEXT: Cell viability assay, MDA-MB-157
Type: cell-based
CONDITION INFO: Homo sapiens, 72 h; MDA-MB-157, TNBC, 3 days; read-out: Cellular Anti-proliferation activity (IC50)
MEASURED QUANTITY: IC50

Some solved cases for reference:
| MOLECULE | RESULT |
| --- | --- |
| CC(=O)c1c(C)c2cnc(Nc3ccc(N4CCNCC4)cn3)nc2n(C2CCCC2)c1=O [Palbociclib, palbociclib] | > 10 µM |
| CN(C)C(=O)c1cc2cnc(Nc3ccc(N4CCNCC4)cn3)nc2n1C1CCCC1 [ribociclib] | > 10 µM |

Next up:
Prompt: Name the recorded IC50 for CCN1CCN(Cc2ccc(Nc3ncc(F)c(-c4cc(F)c5nc(C)n(C(C)C)c5c4)n3)nc2)CC1 [abemaciclib] .
Response: > 10 µM

---

Exercise: for every item that follows, state its recorded inhibition at 0.2 µM.
TARGET: CDK4 (Homo sapiens)
Construct: endogenous in cells; host or cells: Calu-1
PROTOCOL TEXT: CDK4 percentage degradation in Calu-1 cells (immunoblotting)
Type: cell-based
CONDITION INFO: Calu-1, 16 h, read-out: CDK4 Degradation (200 nM)

Some solved cases for reference:
| TEST SMILES | inhibition at 0.2 µM |
| --- | --- |
| CC(=O)c1c(C)c2cnc(Nc3ccc(N4CCN(C(=O)CCOCCOCCOCCOCCOCCOCCNc5cccc(C(=O)Nc6nc(C)c(C)s6)c5C)CC4)cn3)nc2n(C2CCCC2)c1=O | 50 to 80% |
| CC(=O)c1c(C)c2cnc(Nc3ccc(N4CCN(C(=O)CCCCCCCNc5cccc(C(=O)Nc6nc(C)c(C)s6)c5C)CC4)cn3)nc2n(C2CCCC2)c1=O | < 30% |
| CC(=O)c1c(C)c2cnc(Nc3ccc(N4CCN(C(=O)CCOCCC(=O)Nc5ccccc5C(=O)Nc5nc(C)c(C)s5)CC4)cn3)nc2n(C2CCCC2)c1=O | < 30% |

Provide the reported inhibition at 0.2 µM of each entry below, same order.
1. CC(=O)c1c(C)c2cnc(Nc3ccc(N4CCN(C(=O)CCCC(=O)Nc5ccccc5C(=O)Nc5nc(C)c(C)s5)CC4)cn3)nc2n(C2CCCC2)c1=O
2. CC(=O)c1c(C)c2cnc(Nc3ccc(N4CCN(CCNCCCCCCCNc5cccc(C(=O)Nc6nc(C)c(C)s6)c5C)CC4)cn3)nc2n(C2CCCC2)c1=O
3. CC(=O)c1c(C)c2cnc(Nc3ccc(N4CCN(CC(=O)NCCC(=O)Nc5ccccc5C(=O)Nc5nc(C)c(C)s5)CC4)cn3)nc2n(C2CCCC2)c1=O

Response:
["30 to 50%", "< 30%", "< 30%"]

---

TARGET: CDK4 (Homo sapiens, UniProt P11802)
Construct: endogenous in cells; host or cells: Calu-1
Sequence (P11802 2-303 limits assumed): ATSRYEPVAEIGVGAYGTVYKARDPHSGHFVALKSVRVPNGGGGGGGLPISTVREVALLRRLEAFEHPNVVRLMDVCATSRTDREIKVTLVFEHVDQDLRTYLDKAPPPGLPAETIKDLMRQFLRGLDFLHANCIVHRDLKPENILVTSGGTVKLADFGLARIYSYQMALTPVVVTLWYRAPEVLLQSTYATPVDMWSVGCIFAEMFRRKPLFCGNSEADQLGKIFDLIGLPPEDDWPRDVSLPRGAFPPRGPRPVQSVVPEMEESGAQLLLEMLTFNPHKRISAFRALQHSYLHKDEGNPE
Sequence (P24385 whole entry partner): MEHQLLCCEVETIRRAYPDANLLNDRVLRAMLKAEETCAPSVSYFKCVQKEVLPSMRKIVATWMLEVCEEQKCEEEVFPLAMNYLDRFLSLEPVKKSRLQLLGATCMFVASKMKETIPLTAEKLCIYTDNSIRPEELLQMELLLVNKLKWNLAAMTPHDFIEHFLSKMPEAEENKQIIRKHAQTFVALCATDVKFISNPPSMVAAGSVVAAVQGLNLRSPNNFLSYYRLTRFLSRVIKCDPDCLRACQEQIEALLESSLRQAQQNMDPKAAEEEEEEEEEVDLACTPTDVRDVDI
Sequence (Q16531 2-1140 limits assumed, further chain): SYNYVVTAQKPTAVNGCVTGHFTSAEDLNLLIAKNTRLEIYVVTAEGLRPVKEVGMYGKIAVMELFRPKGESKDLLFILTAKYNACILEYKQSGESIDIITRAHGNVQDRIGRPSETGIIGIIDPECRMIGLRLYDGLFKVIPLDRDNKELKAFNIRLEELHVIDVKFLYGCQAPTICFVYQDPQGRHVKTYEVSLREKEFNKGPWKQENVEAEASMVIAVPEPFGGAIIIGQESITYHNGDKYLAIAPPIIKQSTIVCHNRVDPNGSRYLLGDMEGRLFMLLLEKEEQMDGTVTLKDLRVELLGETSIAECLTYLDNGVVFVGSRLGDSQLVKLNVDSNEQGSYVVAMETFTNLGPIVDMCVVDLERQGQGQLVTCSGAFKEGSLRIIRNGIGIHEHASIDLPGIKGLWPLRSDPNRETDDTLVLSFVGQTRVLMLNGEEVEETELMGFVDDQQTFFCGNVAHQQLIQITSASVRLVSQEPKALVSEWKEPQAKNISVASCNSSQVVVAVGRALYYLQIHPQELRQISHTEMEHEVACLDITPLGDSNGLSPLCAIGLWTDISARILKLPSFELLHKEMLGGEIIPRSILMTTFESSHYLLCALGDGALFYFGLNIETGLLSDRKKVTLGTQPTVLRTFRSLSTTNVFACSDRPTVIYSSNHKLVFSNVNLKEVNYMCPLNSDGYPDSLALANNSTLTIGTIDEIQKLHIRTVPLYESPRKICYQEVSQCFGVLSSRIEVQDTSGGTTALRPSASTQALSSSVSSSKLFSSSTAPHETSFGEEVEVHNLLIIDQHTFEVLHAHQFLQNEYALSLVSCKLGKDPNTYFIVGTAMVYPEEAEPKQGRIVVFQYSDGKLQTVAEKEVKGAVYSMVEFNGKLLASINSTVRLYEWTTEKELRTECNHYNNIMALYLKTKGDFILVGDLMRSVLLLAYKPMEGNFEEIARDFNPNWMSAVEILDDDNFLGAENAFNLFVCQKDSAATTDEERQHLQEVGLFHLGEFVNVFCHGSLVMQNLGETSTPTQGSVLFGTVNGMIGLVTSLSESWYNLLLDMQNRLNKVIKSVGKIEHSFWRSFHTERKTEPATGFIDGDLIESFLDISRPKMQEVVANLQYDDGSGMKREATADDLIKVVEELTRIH
PROTOCOL TEXT: CDK4 percentage degradation in Calu-1 cells (immunoblotting)
Assay type: cell-based
CONDITION INFO: Calu-1 cells, 200 nM, 16 hours; read-out: CDK4 Degradation (200 nM)
MEASURED QUANTITY: inhibition at 0.2 µM

Some solved cases for reference:
| COMPOUND | inhibition at 0.2 µM |
| --- | --- |
| CC(=O)c1c(C)c2cnc(Nc3ccc(N4CCN(CC(=O)NCCCCCCCCCNC(=O)COc5ccc(C(=O)Nc6ncc(C)s6)c(C)c5)CC4)cn3)nc2n(C2CCCC2)c1=O [CPD-038] | < 30% |
| COc1ccc(NC(=O)c2ccccc2NC(=O)CCOCCOCCNC(=O)CN2CCN(c3ccc(Nc4ncc5c(C)c(C(C)=O)c(=O)n(C6CCCC6)c5n4)nc3)CC2)nc1 [CPD-342] | 50 to 80% |
| CC(=O)c1c(C)c2cnc(Nc3ccc(N4CCN(CC(=O)NCCOCCNc5ccc(C)c(C(=O)Nc6nc(C)c(C)s6)c5)CC4)cn3)nc2n(C2CCCC2)c1=O [CPD-096] | < 30% |
| CC(=O)c1c(C)c2cnc(Nc3ccc(N4CCN(CC(=O)NCCOCCOCCOCCOCCNc5cccc(C(=O)Nc6nc(C)c(C)s6)c5C)CC4)cn3)nc2n(C2CCCC2)c1=O [CPD-106] | 50 to 80% |
| CC(=O)c1c(C)c2cnc(Nc3ccc(N4CCN(CC(=O)NCCCCCCCNc5ccccc5C(=O)Nc5nc(C)c(C)s5)CC4)cn3)nc2n(C2CCCC2)c1=O [CPD-364] | 50 to 80% |

Next up:
Prompt: State its inhibition at 0.2 µM on CDK4 (Homo sapiens, UniProt P11802): CC(=O)c1c(C)c2cnc(Nc3ccc(N4CCN(CC(=O)NCCOCCOCCC(=O)Nc5cccc(C)c5C(=O)Nc5nc(C)c(C)s5)CC4)cn3)nc2n(C2CCCC2)c1=O [CPD-139]
Response: < 30%

---

TARGET: CDK4 (Homo sapiens, UniProt P11802)
Construct: endogenous in cells; host or cells: Calu-1
PROTOCOL TEXT: CDK4 percentage degradation in Calu-1 cells (immunoblotting)
Type: cell-based
CONDITION INFO: Calu-1 cells, 200 nM, 16 hours; read-out: CDK4 Degradation (200 nM)
Exercise: for every item that follows, state its recorded inhibition at 0.2 µM.

Some solved cases for reference:
| TEST SMILES | TARGET | MEASURED QUANTITY | RESULT |
| --- | --- | --- | --- |
| CNc1ccc(NC(=O)CCOCCOCCNC(=O)CN2CCN(c3ccc(Nc4ncc5c(C)c(C(C)=O)c(=O)n(C6CCCC6)c5n4)nc3)CC2)c(C(=O)Nc2nc(C)c(C)s2)c1 | CDK4 (Homo sapiens, UniProt P11802) | inhibition at 0.2 µM | 50 to 80% |
| CC(=O)c1c(C)c2cnc(Nc3ccc(N4CCN(CC(=O)NCCOCCOCCC(=O)Nc5ccccc5C(=O)Nc5cc[nH]n5)CC4)cn3)nc2n(C2CCCC2)c1=O | CDK4 (Homo sapiens, UniProt P11802) | inhibition at 0.2 µM | 50 to 80% |
| CC(=O)c1c(C)c2cnc(Nc3ccc(N4CCN(CC(=O)NCCOCCOCCC(=O)Nc5ccccc5C(=O)Nc5ccc(Cl)cn5)CC4)cn3)nc2n(C2CCCC2)c1=O | CDK4 (Homo sapiens, UniProt P11802) | inhibition at 0.2 µM | > 80% |
| CC(=O)c1c(C)c2cnc(Nc3ccc(N4CCN(CC(=O)NCCOCCOCCOCCOCCOCCNc5ccc(CNc6nc(C)c(C)s6)c(C)c5)CC4)cn3)nc2n(C2CCCC2)c1=O | CDK4 (Homo sapiens, UniProt P11802) | inhibition at 0.2 µM | 30 to 50% |

Provide the reported inhibition at 0.2 µM of each entry below, same order.
1. CC(=O)c1c(C)c2cnc(Nc3ccc(N4CCN(CC(=O)NCCCCCNc5cc(C#N)ccc5C(=O)Nc5ccc(N(C)C)nn5)CC4)cn3)nc2n(C2CCCC2)c1=O
2. CC(=O)c1c(C)c2cnc(Nc3ccc(N4CCN(CC(=O)NCCOCCOCCC(=O)Nc5ccccc5C(=O)Nc5ncc(C)s5)CC4)cn3)nc2n(C2CCCC2)c1=O
3. CC(=O)c1c(C)c2cnc(Nc3ccc(N4CCN(CC(=O)NCCOCCOCCC(=O)Nc5ccccc5C(=O)Nc5ccc(C6CC6)cn5)CC4)cn3)nc2n(C2CCCC2)c1=O
4. CC(=O)c1c(C)c2cnc(Nc3ccc(N4CCN(CC(=O)NCCOCCOCCC(=O)Nc5ccccc5C(=O)Nc5ccc(C)c(C6CC6)n5)CC4)cn3)nc2n(C2CCCC2)c1=O

Response:
50 to 80%
> 80%
50 to 80%
50 to 80%

Provide the reported inhibition at 0.2 µM of each entry below, same order.
1. CC(=O)c1c(C)c2cnc(Nc3ccc(N4CCN(CC(=O)NCCOCCOCCC(=O)Nc5ccccc5C(=O)Nc5ccn(C)n5)CC4)cn3)nc2n(C2CCCC2)c1=O
2. CC(=O)c1c(C)c2cnc(Nc3ccc(N4CCN(CC(=O)NCCOCCOCCC(=O)Nc5ccccc5C(=O)Nc5ccc(OC6CC6)nn5)CC4)cn3)nc2n(C2CCCC2)c1=O

Response:
50 to 80%
50 to 80%

// provenance: patent US20250235543A1
